# assayedTarget: T1, HLA-DR DRB1*1302 (human)
# T1 chain 1: not shown
# T1 chain 2: not shown
# runDescription: radioligand inhibition, purified HLA-DR
# recordedConditions: remark: other sources report otherwise
Entries and their log10 IC50
measuredQuantity: log10 IC50 (log10 of the value in µM)

• KLCIYTDNSIRPEEL [Cyclin D1.123] = -0.06
• AEVLFRCPPCTPERL [Peptide 9019.0178] = 0.76
• SSYLSGANLNLSCHS [CEA.603 peptide 9012.0137] = -1.43
• GVTVWELMTFGAKPY [Peptide 9019.0090] = 0.95
• DANLLNDRVLRAMLK [Cyclin D1.19 peptide 9019.0146] = -0.54
• APTISPLNTSYRSGE [CEA.239 peptide 9919.0121] = -0.90
• APTIRGDPECHLFYN [Peptide 9019.0022] = 0.22
• TTPVTGASPGGLREL [Her2/neu.126] = 0.78
• NPQLCYQDTILWKDI [Her2/neu.158] = 0.71
• TMNMLGGGGSAGRKP [Peptide 9019.0184] = 0.76
• SPGLSAGATVGIMIG [CEA.680 peptide 9019.0144] = -1.10
• RWCIPWQRLLLTASL [CEA.10 peptide 9019.0104] = 0.37
• MRKIVATWMLEVCEE [Cyclin D1.56] = -0.45
• SITVSASGTSPGLSA [CEA.671 peptide 9919.0143] = -0.23
• DNSIRPEELLQMELL [Cyclin D1.129] = -0.03
• ICELHCPALVTYNTD [Her2/neu.263] = 0.51
• TAKLTIESTPFNVAE [CEA.33 peptide 9019.0106] = -1.46
• TEILKGGVLIQRNPQ [Her2/neu.146] = -0.46
• LQRYSEDPTVPLPSE [Peptide 9019.0099] = -0.55
• SDSVILNVLYGPDAP [CEA.123 peptide 9019.0119 (position 226)] = -1.08
• AKGLQSLPTHDPSPL [Peptide 9019.0098] = 0.60
• HNQVRQVPLQRLRIV [Her/neu.88] = -0.57
• VCGIQNSVSANRSDP [CEA.570 peptide 9012.0135] = -0.04
• GPAYSGREIIYPNAS [CEA.92 peptide 9019.0111] = -0.81
• PPSMVAAGSVVAAVQ [Cyclin D1.109] = -1.26
• LAALCRWGLLLALLP [Her/neu.3] = -0.15
• EGPLPAARPAGATLE [Peptide 9019.0101] = 1.01
• EALLESSLRQAQQNM [Cyclin D1.252] = 0.68
• GYVIGTQQATPGPAY [CEA.81 peptide 9019.0110] = -1.37
• RHLYQGCQVVQGNLE [Her/neu.47] = 0.70
• TVGIMIGVLVGVALI [CEA.688 peptide 9019.05] = 0.75

Hey, just so you know, these numbers are from patent US20100310640A1.
